protocol: Phase I single- and multiple-rising dose study: plasma pharmacokinetics
Set-up: species or system human
setupConditions: human, in vivo, Tmax

| compound | Tmax [h] |
| --- | --- |
| CC(C)(c1cccnc1)C(O)c1cccnc1 (centres unmarked) | 2 |
| CC(C)(C(=O)c1cccnc1)c1cccnc1 | 1.5 |

---

protocol: Phase I single- and multiple-rising dose study: plasma pharmacokinetics
Set-up: species or system human
setupConditions: human, in vivo, human plasma; 270 mg Metyrapone/12 mg Oxazepam; Day 1; median, n 6; read-out: Tmax

| molecule | Tmax, h |
| --- | --- |
| O=C1Nc2ccc(Cl)cc2C(c2ccccc2)=NC1O (stereo not shown) | 3.5 |
